Readings of PT for the listed compounds
# Species on record: Rattus norvegicus
# Protocol summary: Open TG-GATES - Regimen: Single
# Format: toxicity, organism-based, Sprague-Dawley
# Parameters: regimen Single, gender Male, age 6 weeks
# Study conditions: in vivo, po, 100 mg/kg, 24 h, tissue Blood, route gavage, dose level Low
Please answer in the form of a number followed by its unit of measurement.

# count of solved cases: 3
Compound	PT
CCOC(=O)CCC(=O)O[C@H]1[C@H](O[C@@H]2[C@@H](C)[C@H](O[C@H]3C[C@@](C)(OC)[C@@H](O)[C@H](C)O3)[C@@H](C)C(=O)O[C@H](CC)[C@@](C)(O)[C@H](O)[C@@H](C)C(=O)[C@H](C)C[C@@]2(C)O)O[C@H](C)C[C@@H]1N(C)C [ERYTHROMYCIN ETHYLSUCCINATE]	16 s
COC1=CC(=O)C[C@@H](C)[C@]12Oc1c(Cl)c(OC)cc(OC)c1C2=O	13.1 s
COc1ccc2[nH]c([S+]([O-])Cc3ncc(C)c(OC)c3C)nc2c1 (centres undefined)	12.6 s

// PT value for NC(N)=Nc1nc(CSCCC(N)=NS(N)(=O)=O)cs1 : 12 s
